assayedTarget: PSMA-expressing LNCaP cells (Homo sapiens, UniProt Q04609)
Construct: PSMA-expressing LNCaP cells; endogenous in cells; host or cells: LNCaP
Sequence (Q04609 whole entry): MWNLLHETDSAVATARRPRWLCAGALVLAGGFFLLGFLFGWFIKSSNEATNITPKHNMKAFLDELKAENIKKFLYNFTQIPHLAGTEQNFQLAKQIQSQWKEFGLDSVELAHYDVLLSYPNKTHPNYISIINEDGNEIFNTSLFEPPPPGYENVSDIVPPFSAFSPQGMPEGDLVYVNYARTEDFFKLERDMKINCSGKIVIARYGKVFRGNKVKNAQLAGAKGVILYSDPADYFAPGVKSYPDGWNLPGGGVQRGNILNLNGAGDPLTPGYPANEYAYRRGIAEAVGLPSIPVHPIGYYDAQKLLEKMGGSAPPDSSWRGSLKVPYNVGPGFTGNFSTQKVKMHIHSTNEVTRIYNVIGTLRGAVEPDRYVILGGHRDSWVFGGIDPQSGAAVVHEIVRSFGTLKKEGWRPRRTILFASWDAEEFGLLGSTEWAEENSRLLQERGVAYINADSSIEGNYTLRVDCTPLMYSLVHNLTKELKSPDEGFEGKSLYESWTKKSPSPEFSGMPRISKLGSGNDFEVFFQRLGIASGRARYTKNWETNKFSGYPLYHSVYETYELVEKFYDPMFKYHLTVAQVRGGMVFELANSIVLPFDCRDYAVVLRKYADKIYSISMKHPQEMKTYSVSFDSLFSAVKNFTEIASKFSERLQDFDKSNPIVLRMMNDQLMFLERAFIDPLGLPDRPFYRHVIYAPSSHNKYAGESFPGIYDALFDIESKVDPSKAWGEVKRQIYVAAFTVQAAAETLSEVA
experimentDescription: Binding competition assay against 3H-PSMA-617 on LNCaP cells
protocolConditions: LNCaP cells; 10 nM 3H-PSMA-617; competing non-radiolabeled compound 100 nM; 2 h at 37° C.; triplicates
With a cut-off of 70%, any remaining activity at 0.1 µM strictly below it is called true; any remaining activity at 0.1 µM meeting it or above is called false.

O=C(O)CC[C@H](NC(=O)N[C@@H](CCCCNC(=O)[C@H](Cc1ccc2ccccc2c1)NC(=O)c1ccc(CNC(=O)CN2CCN(CC(=O)O)CCN(CC(=O)O)CCN(CC(=O)O)CC2)nc1)C(=O)O)C(=O)O: true
NC[C@H]1CC[C@H](C(=O)N[C@@H](Cc2ccc(Br)cn2)C(=O)NCCCC[C@H](NC(=O)N[C@@H](CCC(=O)O)C(=O)O)C(=O)O)CC1: false
O=C(O)CC[C@H](NC(=O)N[C@@H](CCCCNC(=O)[C@H](Cc1ccc2ccccc2c1)NC(=O)[C@H]1CC[C@H](CNC(=O)CN2CCN(CC(=O)O)CCN(CC(=O)O)CCN(CC(=O)O)CC2)CC1)C(=O)O)C(=O)O [Example 1-B, reference compound]: true
NC[C@H]1CC[C@H](C(=O)N[C@@H](Cc2ccc(-c3ccccc3)cc2)C(=O)NCCCC[C@H](NC(=O)N[C@@H](CCC(=O)O)C(=O)O)C(=O)O)CC1 [Example 11a-A]: false
CNCC[C@H]1CC[C@H](C(=O)N[C@H](Cc2cc(OC)c3ccccc3c2)C(=O)NCCCC[C@H](NC(=O)N[C@@H](CCC(=O)O)C(=O)O)C(=O)O)CC1: true
O=C(O)CC[C@H](NC(=O)N[C@@H](CCCCNC(=O)[C@H](Cc1ccc2ccccc2c1)NC(=O)c1cccc(CNC(=O)CN2CCN(CC(=O)O)CCN(CC(=O)O)CCN(CC(=O)O)CC2)c1)C(=O)O)C(=O)O: true
NC[C@H]1CC[C@H](C(=O)N(Cc2cccc(=O)[nH]2)[C@@H](Cc2ccc3ccccc3c2)C(=O)NCCCC[C@H](NC(=O)N[C@@H](CCC(=O)O)C(=O)O)C(=O)O)CC1: true
Cc1ccccc1C[C@H](NC(=O)[C@H]1CC[C@H](CN)CC1)C(=O)NCCCC[C@H](NC(=O)N[C@@H](CCC(=O)O)C(=O)O)C(=O)O: false

Dear colleague, could you confirm whether remaining activity at 0.1 µM of O=C(O)CC[C@H](NC(=O)N[C@@H](CCCCNC(=O)[C@H](Cc1cc2ccccc2cn1)NC(=O)[C@H]1CC[C@H](CNC(=O)CN2CCN(CC(=O)O)CCN(CC(=O)O)CCN(CC(=O)O)CC2)CC1)C(=O)O)C(=O)O falls below 70%? Thanks. true

Dear colleague, could you confirm whether remaining activity at 0.1 µM of NC[C@H]1CC[C@H](C(=O)N[C@@H](Cc2cc(F)c(F)c(F)c2)C(=O)NCCCC[C@H](NC(=O)N[C@@H](CCC(=O)O)C(=O)O)C(=O)O)CC1 falls below 70%? Thanks. false

Dear colleague, could you confirm whether remaining activity at 0.1 µM of NC[C@H]1CC[C@H](C(=O)N[C@@H](Cc2cnc3ccccc3c2)C(=O)NCCCC[C@H](NC(=O)N[C@@H](CCC(=O)O)C(=O)O)C(=O)O)CC1 falls below 70%? Thanks. true

Every entry's value here was drawn from patent US20230072421A1.
